Sourced from patent US20230096766A1

Test: in vitro
Conditions: human, Caco-2, Caco-2 (cm/sec)
*1 amine or outer side, *2 acyl side, *3 side chain or, on linkers, in order; H or OH if unused. Where a SMILES comes first, the peptide text is derived from it. Bridges are numbered along the chain shown (N, C = ends). [ ]: non-standard residue; d: D form. The star is where a group is joined. ξ: configuration not given here. X11 = CNC(=O)c1ccc(CCN(CC(=O)[*:2])[*:1])cc1OC; NMePhe(3-Cl) = CN[C@@H](Cc1cccc(Cl)c1)C(=O)O; Propyl(2,2-Me2,3-OH) = CC(C)(CO)C*; NMeF = CN[C@@H](Cc1ccccc1)C(=O)O; NMeGABA = CN(CCCC(=O)[*:2])[*:1]; NMeL = CN[C@@H](CC(C)C)C(=O)O; ξNMeF = CNC(Cc1ccccc1)C(=O)O; Butyl(3S-OH) = C[C@H](O)CC*; NMeAbu = CC[C@H](NC)C(=O)O; Piperidide = C1CCN(*)CC1; CH2CMe2OH = CC(C)(O)C*; NBuGly = CCCCNCC(=O)O; NPrGly = CCCNCC(=O)O; Sar = CNCC(=O)O; tBu = CC(C)(C)*
Labelling field: enter Yes if recorded Papp is less than 5 nm/s. Enter No if it equals or exceeds that cut-off.

Examples with answers:
CCCCN1CC(=O)N(C)[C@@H](CC(C)C)C(=O)N[C@@H](COCC(C)(C)CO)C(=O)N(C)[C@@H](Cc2ccccc2)C(=O)N(C)[C@@H](CC(C)C)C(=O)N[C@H](C(=O)N2CCCCC2)CC(=O)N[C@H](C(C)C)C(=O)N(C)C(Cc2ccccc2)C(=O)N[C@@H](CC(C)C)C(=O)N(C)[C@@H](CC(C)C)C(=O)N[C@@H]([C@@H](C)O)C1=O (stereo partly drawn) [AP126] ([dV][ξNMeF]L[NMeL]T[NBuGly][NMeL]S(Propyl(2,2-Me2,3-OH))[NMeF][NMeL]D-Piperidide; lactam N-11) : Yes
CC[C@H]1C(=O)N[C@@H]([C@@H](C)O)C(=O)N(C)CC(=O)N(C)[C@@H](Cc2ccccc2)C(=O)N(C)[C@@H](CC(C)C)C(=O)N[C@@H](COC(C)(C)C)C(=O)N(C)[C@@H](CC(C)C)C(=O)N[C@H](C(=O)N2CCCCC2)CC(=O)N(CCc2ccc(C(=O)NC)c(OC)c2)CC(=O)N(C)[C@@H](CC(C)C)C(=O)N[C@@H](CC(C)C)C(=O)N1C [AP219] ([X11][NMeL]L[NMeAbu]T[Sar][NMeF][NMeL]S(tBu)[NMeL]D-Piperidide; lactam N-11) : No
CCCN1CC(=O)N(C)[C@@H](CC(C)C)C(=O)N[C@@H](COC(C)(C)C)C(=O)N(C)[C@@H](Cc2ccccc2)C(=O)N(C)[C@@H](Cc2ccccc2)C(=O)N[C@H](C(=O)N2CCCCC2)CC(=O)N[C@H](C)C(=O)N(C)[C@@H](Cc2ccccc2)C(=O)N[C@@H](C(C)C)C(=O)N(C)[C@@H](CC(C)C)C(=O)N[C@@H]([C@@H](C)O)C1=O [pd194] ([dA][NMeF]V[NMeL]T[NPrGly][NMeL]S(tBu)[NMeF][NMeF]D-Piperidide; lactam N-11) : No

Hello, I'm reviewing records and need to know if Papp of CCCCN1CC(=O)N(C)[C@@H](Cc2cccc(Cl)c2)C(=O)N(C)[C@@H](CC(C)C)C(=O)N[C@@H](COCC[C@H](C)O)C(=O)N(C)[C@@H](CC(C)C)C(=O)N[C@H](C(=O)N2CCCCC2)CC(=O)N(C)CC(=O)N(C)[C@@H](Cc2ccccc2)C(=O)N[C@@H](C(C)C)C(=O)N(C)[C@@H](CC(C)C)C(=O)N[C@@H]([C@@H](C)O)C1=O [AP106] ([Sar][NMeF]V[NMeL]T[NBuGly][NMePhe(3-Cl)][NMeL]S(Butyl(3S-OH))[NMeL]D-Piperidide; lactam N-11) is below 5 nm/s. Could you check? Yes

What about this compound? CC[C@H](C)[C@@H]1NC(=O)[C@H](CC(C)C)N(C)C(=O)CCCN(C)C(=O)C[C@@H](C(=O)N2CCCCC2)NC(=O)[C@H](CC(C)C)N(C)C(=O)[C@H](CC(C)C)N(C)C(=O)[C@H]([C@@H](C)O)NC(=O)[C@H](CC(C)C)N(C)C(=O)[C@H](COCC(C)(C)O)NC(=O)[C@H](Cc2cccc(Cl)c2)N(C)C(=O)[C@H](Cc2ccccc2)N(C)C1=O [AP04] ([NMeGABA][NMeL]I[NMeF][NMePhe(3-Cl)]S(CH2CMe2OH)[NMeL]T[NMeL][NMeL]D-Piperidide; lactam N-11) No

---

Assay: in vitro
Details: human, Caco-2, Caco-2 (cm/sec)
*1 amine or outer side, *2 acyl side, *3 side chain or, on linkers, in order; H or OH if unused. Where a SMILES comes first, the peptide text is derived from it. Bridges are numbered along the chain shown (N, C = ends). [ ]: non-standard residue; d: D form. The star is where a group is joined. hPhe(3-OMe,4-CONHMe) = CNC(=O)c1ccc(CC[C@H](N)C(=O)O)cc1OC; NMePhe(3-Cl) = CN[C@@H](Cc1cccc(Cl)c1)C(=O)O; X6 = O=C([C@H](CCCCO)N[*:1])[*:2]; NMeF = CN[C@@H](Cc1ccccc1)C(=O)O; NMeL = CN[C@@H](CC(C)C)C(=O)O; NMeAbu = CC[C@H](NC)C(=O)O; Piperidide = C1CCN(*)CC1; dAbu = CC[C@@H](N)C(=O)O; dNMeA = CN[C@H](C)C(=O)O; NBuGly = CCCCNCC(=O)O; NPrGly = CCCNCC(=O)O; tBu = CC(C)(C)*
readout-type: Papp (×10⁻⁶ cm/s)
Kindly provide the numeric value in ×10⁻⁶ cm/s only, without the unit symbol.

Known results for molecules:
CC(C)C[C@@H]1NC(=O)[C@H](Cc2ccccc2)N(C)C(=O)[C@H](CC(C)C)N(C)C(=O)[C@@H](C)N(C)C(=O)C[C@@H](C(=O)N2CCCCC2)NC(=O)[C@H](CC(C)C)N(C)C(=O)[C@H](Cc2ccccc2)N(C)C(=O)[C@H]([C@@H](C)O)NC(=O)[C@H](Cc2ccccc2)N(C)C1=O [pd223] ([dNMeA][NMeL][NMeF]L[NMeF]T[NMeF][NMeL]D-Piperidide; lactam N-9) : 1.1
CCCN1CC(=O)N(C)[C@@H](CC(C)C)C(=O)N[C@@H](CCCCO)C(=O)N(C)[C@@H](Cc2cccc(Cl)c2)C(=O)N(C)[C@@H](CC(C)C)C(=O)N[C@H](C(=O)N2CCCCC2)CC(=O)N[C@H](CC)C(=O)N(C)[C@@H](Cc2ccccc2)C(=O)N[C@@H](CC(C)C)C(=O)N(C)[C@@H](CC(C)C)C(=O)N[C@@H]([C@@H](C)O)C1=O [Compound B10] ([dAbu][NMeF]L[NMeL]T[NPrGly][NMeL][X6][NMePhe(3-Cl)][NMeL]D-Piperidide; lactam N-11) : 0.25

// returns reported Papp for input CCCCN1CC(=O)N(C)[C@@H](CC(C)C)C(=O)N[C@@H](COC(C)(C)C)C(=O)N(C)[C@@H](CC(C)C)C(=O)N(C)[C@@H](CC)C(=O)N[C@H](C(=O)N2CCCCC2)CC(=O)N[C@H](CC(C)C)C(=O)N(C)[C@@H](Cc2ccccc2)C(=O)N[C@@H](CCc2ccc(C(=O)NC)c(OC)c2)C(=O)N(C)[C@@H](CC(C)C)C(=O)N[C@@H]([C@@H](C)O)C1=O [AP201] ([dL][NMeF][hPhe(3-OMe,4-CONHMe)][NMeL]T[NBuGly][NMeL]S(tBu)[NMeL][NMeAbu]D-Piperidide; lactam N-11) 0.35

---

Assay: in vitro
Details: human, Caco-2, Caco-2 (cm/sec)
Where a SMILES comes first, the peptide text is derived from it. Bridges are numbered along the chain shown (N, C = ends). [ ]: non-standard residue; d: D form. The star is where a group is joined. NMeHph(3-OMe-4-CONHMe) = CNC(=O)c1ccc(CC[C@H](NC)C(=O)O)cc1OC; hPhe(3-OMe,4-CONHMe) = CNC(=O)c1ccc(CC[C@H](N)C(=O)O)cc1OC; NMeF = CN[C@@H](Cc1ccccc1)C(=O)O; NMeL = CN[C@@H](CC(C)C)C(=O)O; NMeAbu = CC[C@H](NC)C(=O)O; NMeA = CN[C@@H](C)C(=O)O; Piperidide = C1CCN(*)CC1; NBuGly = CCCCNCC(=O)O; Sar = CNCC(=O)O; tBu = CC(C)(C)*
readout-type: Papp (×10⁻⁶ cm/s)
Kindly provide the numeric value in ×10⁻⁶ cm/s only, without the unit symbol.

Known results for molecules:
CCCCN1CC(=O)N(C)[C@@H](Cc2ccccc2)C(=O)N[C@@H]([C@@H](C)CC)C(=O)N(C)[C@@H](CC(C)C)C(=O)N[C@@H]([C@@H](C)O)C(=O)N(C)CC(=O)N(C)[C@@H](CCc2ccc(C(=O)NC)c(OC)c2)C(=O)N(C)[C@@H](CC(C)C)C(=O)N[C@@H](COC(C)(C)C)C(=O)N(C)[C@@H](CC(C)C)C(=O)N[C@H](C(=O)N2CCCCC2)CC1=O [AP232] ([NBuGly][NMeF]I[NMeL]T[Sar][NMeHph(3-OMe-4-CONHMe)][NMeL]S(tBu)[NMeL]D-Piperidide; lactam N-11) : 2
CC[C@H](C)[C@@H]1NC(=O)[C@H](Cc2ccccc2)N(C)C(=O)[C@@H](C)NC(=O)C[C@@H](C(=O)N2CCCCC2)NC(=O)[C@H](CC(C)C)N(C)C(=O)[C@H](C)N(C)C(=O)[C@H](COC(C)(C)C)NC(=O)[C@H](C)N(C)C(=O)CN(C)C(=O)[C@H](Cc2ccc(O)cc2)NC(=O)[C@H](CC(C)C)N(C)C1=O [pd112] ([dA][NMeF]I[NMeL]Y[Sar][NMeA]S(tBu)[NMeA][NMeL]D-Piperidide; lactam N-11) : 0.11

// next entry
// returns reported Papp for input CC[C@H]1C(=O)N[C@@H](CCc2ccc(C(=O)NC)c(OC)c2)C(=O)N(C)[C@@H](CC(C)C)C(=O)N(C)[C@@H](CC(C)C)C(=O)N[C@@H](C(C)C)C(=O)N(C)[C@@H](Cc2ccccc2)C(=O)N(C)[C@@H](CC(C)C)C(=O)N[C@@H]([C@@H](C)O)C(=O)N(C)CC(=O)N(C)[C@@H](CC(C)C)C(=O)N[C@H](C(=O)N2CCCCC2)CC(=O)N1C [AP205] ([NMeAbu][hPhe(3-OMe,4-CONHMe)][NMeL][NMeL]V[NMeF][NMeL]T[Sar][NMeL]D-Piperidide; lactam N-11) 0.79
